Origin of measurements: patent US20250092036A1

target: ERK2[2-360(p-T185/p-Y187)]-Avi (Homo sapiens, UniProt P28482); construct: 400 pM ERK2[2-360(p-T185/p-Y187)]-Avi was added to the plate; assay: Biochemical assay (HTRF competition assay); type: binding; conditions: HTRF competition with Example 15 probe, overnight at RT; read-out: Biochemical qualified AC50
Sequence (P28482 2-360 limits assumed): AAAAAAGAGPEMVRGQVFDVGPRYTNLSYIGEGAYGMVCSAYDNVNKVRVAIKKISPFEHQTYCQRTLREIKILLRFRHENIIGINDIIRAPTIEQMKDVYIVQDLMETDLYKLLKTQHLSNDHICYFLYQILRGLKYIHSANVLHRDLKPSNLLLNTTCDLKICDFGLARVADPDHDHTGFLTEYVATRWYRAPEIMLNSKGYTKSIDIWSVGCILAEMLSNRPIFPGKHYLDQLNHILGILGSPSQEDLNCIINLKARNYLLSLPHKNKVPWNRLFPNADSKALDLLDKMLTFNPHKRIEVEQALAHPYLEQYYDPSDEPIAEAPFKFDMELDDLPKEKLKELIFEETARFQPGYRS
observedProperty: AC50

Query block: Please report the measured AC50 for CCO[C@H]1CC[C@H](Cc2c(C)n(C(=O)N3CC[C@@](C(=O)N[C@H]4CC[C@H](C(=O)O)C[C@@H]4C)(c4ccc(F)cc4)C[C@@H]3C)c3cc(F)ccc23)OC1 (mixture of isomers)
Result block: < 0.28 nM

Query block: Look up and state reported AC50 for CCc1c(C[C@H]2CC[C@H](OC3CCOCC3)CC2)c2ccc(F)cc2n1C(=O)N1CC[C@@](C(=O)N[C@H]2CC[C@H](C(=O)O)C[C@@H]2C)(c2ccccc2)C[C@@H]1C
Result block: < 0.28 nM

Query block: Fill in reported AC50 for this entry: CCOC1CCC(Cc2c(C)n(C(=O)N3CC[C@@](C(=O)N[C@H]4CC[C@H](C(=O)O)C[C@@H]4C)(c4ccc(F)cc4)C[C@@H]3C)c3cc(F)ccc23)OC1 (single isomer, unassigned)
Result block: < 0.28 nM
